- target-of-assay: human IDO1 (LLTC-hIDO1 cells) (Homo sapiens (Human))
- Sequence (P14902 whole entry): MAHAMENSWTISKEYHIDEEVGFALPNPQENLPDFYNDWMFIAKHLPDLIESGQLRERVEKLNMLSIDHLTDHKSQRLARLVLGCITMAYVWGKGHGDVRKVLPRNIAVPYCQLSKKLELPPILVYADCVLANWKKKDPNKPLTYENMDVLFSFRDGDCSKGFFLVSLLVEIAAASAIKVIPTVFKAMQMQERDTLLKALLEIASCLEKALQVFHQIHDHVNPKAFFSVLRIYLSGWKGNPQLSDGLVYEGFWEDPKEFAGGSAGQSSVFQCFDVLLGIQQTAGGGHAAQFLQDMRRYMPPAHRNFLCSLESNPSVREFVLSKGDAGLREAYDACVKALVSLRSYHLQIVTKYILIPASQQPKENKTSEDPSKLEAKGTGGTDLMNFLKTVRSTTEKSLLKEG
- assay-protocol: Cell-based assay for IDO1 inhibition
- test-context: 24 h; read-out: Cellular IDO1 IC50
parameter: IC50

[[record]]
compound = "COc1cccc(Nc2ccc3c(N)noc3n2)c1"
target_of_assay = "human IDO1 (LLTC-hIDO1 cells) (Homo sapiens (Human))"
reported = "10 to 100 µM"

[[record]]
compound = "Nc1noc2ncc(F)cc12 [Compound 14, 5-Fluoroisoxazolo[5,4-b]pyridin-3-amine]"
target_of_assay = "human IDO1 (LLTC-hIDO1 cells) (Homo sapiens (Human))"
reported = "1 to 10 µM"

[[record]]
compound = "COc1ccc2c(N)noc2n1 [Compound 41, 6-Methoxyisoxazolo[5,4-b]pyridin-3-amine]"
target_of_assay = "human IDO1 (LLTC-hIDO1 cells) (Homo sapiens (Human))"
reported = "1 to 10 µM"

[[record]]
compound = "Cc1nc2onc(N)c2c(C)c1C"
target_of_assay = "human IDO1 (LLTC-hIDO1 cells) (Homo sapiens (Human))"
reported = "1 to 10 µM"

[[record]]
compound = "Nc1noc2ncc(-c3ccccc3)cc12 [Compound 24, 5-Phenylisoxazolo[5,4-b]pyridin-3-amine]"
target_of_assay = "human IDO1 (LLTC-hIDO1 cells) (Homo sapiens (Human))"
reported = "10 to 100 µM"

[[record]]
compound = "Cc1nc2onc(NC(=O)Nc3cccc(C(F)(F)F)c3)c2c(C)c1Cl [Compound 15B]"
target_of_assay = "human IDO1 (LLTC-hIDO1 cells) (Homo sapiens (Human))"
reported = "1 to 10 µM"

